Listed here: items and their measured combination Emax.
# Tested on: SR (Other Blood Carcinomas)
# assayInfo: combination Emax (second highest fraction inhibited in the dose matrix, 72 h); higher = more inhibition; extreme values may be limits of the assay

Completed entries (count: 2):
[
  {
    "molecule": "Cc1c2c(nn1C)CSCc1cc(n(C)n1)CSc1cc(c3ccccc3c1)OCCCc1c(C(=O)O)n(C)c3c-2c(Cl)ccc13 [AZD5991] + C[C@@H](Nc1cc(F)cc(F)c1)c1cc(C(=O)N(C)C)cc2c(=O)cc(N3CCOCC3)oc12 [AZD8186] (first compound max 1 µM, 7x7, partner max 3 µM)",
    "experimentalSystem": "SR (Other Blood Carcinomas)",
    "combination Emax": 0.954
  },
  {
    "molecule": "CN(CCO)CC[C@H](CSc1ccccc1)Nc1ccc(S(=O)(=O)NC(=O)c2ccc(N3CCC([C@@H](O)c4ccccc4-c4ccc(Cl)cc4)CC3)cc2)cc1S(=O)(=O)C(F)(F)F [AZD4320] + Nc1ccn([C@@H]2O[C@H](CO)[C@@H](O)C2(F)F)c(=O)n1 [Gemcitabine] (first compound max 1 µM, 7x7, partner max 0.3 µM)",
    "experimentalSystem": "SR (Other Blood Carcinomas)",
    "combination Emax": 1
  }
]

We next turn to a different molecule, shown below.
# lookup: CC1(C)CCC(CN2CCN(c3ccc(C(=O)NS(=O)(=O)c4ccc(NCC5CCOCC5)c([N+](=O)[O-])c4)c(Oc4cnc5[nH]ccc5c4)c3)CC2)=C(c2ccc(Cl)cc2)C1 [Venetoclax] + C[C@@H]1COCCN1C2=NC(=NC(=C2)C3(CC3)[S@](=N)(=O)C)C4=C5C=CNC5=NC=C4 [AZD6738] (first compound max 1 µM, 7x7, partner max 10 µM) on SR (Other Blood Carcinomas), combination Emax = 0.973
